System Tested: Factor XIa (Homo sapiens, UniProt P03951)
Sequence (P03951 388-625 limits assumed): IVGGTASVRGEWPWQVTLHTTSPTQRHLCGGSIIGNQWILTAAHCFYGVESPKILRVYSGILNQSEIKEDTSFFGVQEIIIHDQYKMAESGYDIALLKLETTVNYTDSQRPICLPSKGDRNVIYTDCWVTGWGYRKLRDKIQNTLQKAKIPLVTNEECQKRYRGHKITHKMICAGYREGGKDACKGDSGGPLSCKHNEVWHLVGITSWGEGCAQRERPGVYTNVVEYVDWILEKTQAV
Sequence (P03951 19-387 partner limits assumed): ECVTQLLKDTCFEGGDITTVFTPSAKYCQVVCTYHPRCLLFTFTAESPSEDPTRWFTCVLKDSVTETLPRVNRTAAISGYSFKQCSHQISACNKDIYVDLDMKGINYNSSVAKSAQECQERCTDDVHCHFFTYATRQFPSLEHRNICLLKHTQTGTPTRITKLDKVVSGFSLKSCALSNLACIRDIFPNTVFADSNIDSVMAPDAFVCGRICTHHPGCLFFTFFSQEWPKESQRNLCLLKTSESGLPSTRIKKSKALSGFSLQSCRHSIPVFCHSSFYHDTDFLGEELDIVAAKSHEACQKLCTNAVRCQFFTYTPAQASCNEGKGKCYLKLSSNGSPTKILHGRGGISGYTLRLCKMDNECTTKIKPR
Protocol: Factor XIa inhibition assay (FLINT) utilizing a fluorophore-quencher pair peptide substrate 5Fam-[…]-K5Tamra
Assay type: biochemical
Stated Conditions: kinetic (KIN) reads; values in nM; read-out: FXIa KIN Inh IC50
Measure Name: log10 IC50 (log10 of the value in nM)
// do not treat as linear: log10 of IC50, unit nM

- C[C@H]1C[C@@H](c2ncc(-c3ccc(NC(=O)C4CC4)nc3)[nH]2)n2c1nc(-c1c(-n3cnnn3)ccc(Cl)c1F)cc2=O (stereo in doubt): 0.49
- C[C@H]1C[C@H](c2ncc(-c3ncc(N)nc3C(F)F)[nH]2)n2c1nc(-c1c(-n3cnnn3)ccc(Cl)c1F)cc2=O (relative stereo): 1.72

In: Given the compound C[C@@H]1C[C@@H](c2ncc(-c3cnc(N)c(F)c3)[nH]2)n2c1cc(-c1c(-n3cnnn3)ccc(Cl)c1F)cc2=O (relative stereo) , write its reported log10 IC50.
Out: 1.29

In: Given the compound C[C@@H]1C[C@H](c2ncc(-c3cn[nH]c3)[nH]2)n2c1nc(-c1c(-n3cnnn3)ccc(Cl)c1F)cc2=O (stereo in doubt) , write its reported log10 IC50.
Out: 1.96

In: Given the compound C[C@H]1C[C@@H](c2ncc(-c3cc4c(cn3)NC(=O)CC4)[nH]2)n2c1cc(-c1c(-n3cnnn3)ccc(Cl)c1F)cc2=O (single isomer, unassigned) [Example 92] , write its reported log10 IC50.
Out: 0.92

---

System Tested: human plasma kallikrein (Homo sapiens, UniProt P03952)
Sequence (P03952 391-638 limits assumed): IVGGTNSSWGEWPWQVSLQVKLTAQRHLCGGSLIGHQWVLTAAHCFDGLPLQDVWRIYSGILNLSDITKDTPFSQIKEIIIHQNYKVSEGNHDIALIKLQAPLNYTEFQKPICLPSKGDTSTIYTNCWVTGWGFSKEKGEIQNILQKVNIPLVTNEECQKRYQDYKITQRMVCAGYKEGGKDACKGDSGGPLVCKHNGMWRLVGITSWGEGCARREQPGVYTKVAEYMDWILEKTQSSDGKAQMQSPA
Sequence (P03952 20-390 partner limits assumed): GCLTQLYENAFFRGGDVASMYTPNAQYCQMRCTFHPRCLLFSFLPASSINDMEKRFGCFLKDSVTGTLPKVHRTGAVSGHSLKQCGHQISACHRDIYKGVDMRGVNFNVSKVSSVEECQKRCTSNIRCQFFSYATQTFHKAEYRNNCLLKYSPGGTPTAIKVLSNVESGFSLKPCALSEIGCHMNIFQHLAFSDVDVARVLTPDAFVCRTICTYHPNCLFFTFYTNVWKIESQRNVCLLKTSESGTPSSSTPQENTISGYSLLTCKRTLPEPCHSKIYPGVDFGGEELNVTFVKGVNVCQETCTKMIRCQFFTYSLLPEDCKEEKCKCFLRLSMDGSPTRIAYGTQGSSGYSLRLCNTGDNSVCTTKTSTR
Protocol: Kallikrein inhibition assay (FLINT) utilizing a quenched AMC peptide substrate Z-Gly-Pro-Arg-AMC
Format: biochemical
Stated Conditions: kinetic (KIN) reads; values in nM; read-out: Kallikrein KIN Inh IC50
The following compounds are shown together with reported IC50 values.

Recorded IC50, per entry:
* C[C@H]1C[C@@H](c2ncc(-c3ccc4nn(C)cc4c3)[nH]2)n2c1cc(-c1c(-n3cnnn3)ccc(Cl)c1F)cc2=O (stereo in doubt) | 488 nM
* COC(=O)Nc1ccc(-c2cnc([C@@H]3C[C@H](C)c4cc(-c5c(-n6cnnn6)ccc(Cl)c5F)cc(=O)n43)[nH]2)cc1 | 3.5 nM
* C[C@H]1C[C@@H](c2ncc(-c3ncc(N)nc3C(F)(F)F)[nH]2)n2c1nc(-c1c(-n3cnnn3)ccc(Cl)c1F)cc2=O (relative stereo) | 377 nM

In: Given the compound CC1C[C@H](c2nc(-c3cnc(N)cn3)c[nH]2)n2c1nc(-c1c(-n3cc(C(F)(F)F)nn3)ccc(Cl)c1F)cc2=O (some centres unmarked) , write its reported IC50.
Out: 324 nM

In: Given the compound C[C@H]1C[C@@H](c2ncc(-c3ccc(N)nc3Cl)[nH]2)n2c1nc(-c1c(-n3cnnn3)ccc(Cl)c1F)cc2=O (single isomer, unassigned) , write its reported IC50.
Out: 18.3 nM

In: Given the compound C[C@H]1C[C@@H](c2ncc(-c3cn[nH]c3)[nH]2)n2c1nc(-c1c(-n3cnnn3)ccc(Cl)c1F)cc2=O (stereo in doubt) , write its reported IC50.
Out: 95.9 nM

In: Given the compound COC(=O)Nc1ccc(-c2cnc([C@@H]3C[C@@H](C)c4nc(-c5c(-n6cnnn6)ccc(Cl)c5F)cc(=O)n43)[nH]2)cn1 (stereo in doubt) , write its reported IC50.
Out: 15 nM

In: Given the compound C[C@H]1C[C@@H](c2ncc(-c3ncc(N)nc3C(F)F)[nH]2)n2c1nc(-c1c(-n3cnnn3)ccc(Cl)c1F)cc2=O (relative stereo) , write its reported IC50.
Out: 819 nM

In: Given the compound C[C@H]1C[C@@H](c2ncc(-c3cc4c(cn3)NC(=O)CC4)[nH]2)n2c1cc(-c1c(-n3cnnn3)ccc(Cl)c1F)cc2=O (single isomer, unassigned) [Example 9] , write its reported IC50.
Out: ~21.4 nM

In: Given the compound C[C@H]1C[C@@H](c2ncc(-c3ccc(N)nc3F)[nH]2)n2c1nc(-c1c(-n3cnnn3)ccc(Cl)c1F)cc2=O (stereo in doubt) , write its reported IC50.
Out: 25.9 nM

In: Given the compound C[C@H]1C[C@@H](c2ncc(-c3ccnc(N)c3F)[nH]2)n2c1nc(-c1c(-n3cnnn3)ccc(Cl)c1F)cc2=O (relative stereo) , write its reported IC50.
Out: 14.5 nM

---

System Tested: Factor XIa (Homo sapiens)
Protocol: Factor XIa inhibition assay (FLINT) utilizing a fluorophore-quencher pair peptide substrate 5Fam-[…]-K5Tamra
Type: biochemical
Stated Conditions: kinetic (KIN) reads; values in nM; read-out: FXIa KIN Inh IC50
Measure Name: IC50 (nM)
Report only the number, with the unit nM understood.

Recorded IC50, per entry:
* COC(=O)Nc1ccc(-c2cnc([C@@H]3C[C@H](C)c4nc(-c5c(-n6cnnn6)ccc(Cl)c5F)cc(=O)n43)[nH]2)cn1 (stereo in doubt) [Example 116] | 1.2
* O=c1cc(-c2c(-n3cnnn3)ccc(Cl)c2F)nc2n1C(c1nc(F)c(-c3ccnc(CO)c3F)[nH]1)CC21CC1 (racemic) [Example 69] | 19.4
* C[C@@H]1C[C@H](c2ncc(-c3ccc(NC(=O)C4CC4)nc3)[nH]2)n2c1nc(-c1c(-n3cnnn3)ccc(Cl)c1F)cc2=O (stereo in doubt) [Example 120] | 12.8
* C[C@@H]1C[C@@H](c2ncc(-c3ccc(N)nc3F)[nH]2)n2c1nc(-c1c(-n3cnnn3)ccc(Cl)c1F)cc2=O (relative stereo) [Example 137] | 104
* C[C@H]1C[C@H](c2ncc(-c3ccc(N)nc3Cl)[nH]2)n2c1cc(-c1c(-n3cnnn3)ccc(Cl)c1F)cc2=O (relative stereo) [Example 37] | 283

In: Given the compound C[C@H]1C[C@@H](c2ncc(-c3ccc(N)nc3Cl)[nH]2)n2c1nc(-c1c(-n3cnnn3)ccc(Cl)c1F)cc2=O (single isomer, unassigned) [Example 142] , write its reported IC50.
Out: 0.2

In: Given the compound CNC(=O)c1cc(-c2cnc([C@@H]3C[C@H](C)c4cc(-c5c(-n6cnnn6)ccc(Cl)c5F)cc(=O)n43)[nH]2)ccn1 [Example 13] , write its reported IC50.
Out: 12.7

In: Given the compound C[C@H]1C[C@@H](c2ncc(-c3cnnn3C)[nH]2)n2c1cc(-c1c(-n3cnnn3)ccc(Cl)c1F)cc2=O [Example 28] , write its reported IC50.
Out: 311

In: Given the compound C[C@@H]1C[C@H](c2ncc(-c3cnc(N)nc3)[nH]2)n2c1nc(-c1c(-n3cnnn3)ccc(Cl)c1F)cc2=O (stereo in doubt) [Example 114] , write its reported IC50.
Out: 111

---

The following molecules are shown together with reported IC50 values.
System Tested: human plasma kallikrein (Homo sapiens)
Protocol: Kallikrein inhibition assay (FLINT) utilizing a quenched AMC peptide substrate Z-Gly-Pro-Arg-AMC
Assay type: biochemical
Stated Conditions: kinetic (KIN) reads; unit μM; read-out: Kallikrein KIN Inh IC50

Recorded IC50, per entry:
• C[C@H]1C[C@@H](c2ncc(-c3ccc(N)nc3Cl)[nH]2)n2c1nc(-c1c(-n3cnnn3)ccc(Cl)c1F)cc2=O (single isomer, unassigned) [Example 140] = 9.1 µM
• Cc1nc(N)sc1-c1cnc([C@@H]2C[C@H](C)c3cc(-c4c(-n5cnnn5)ccc(Cl)c4F)cc(=O)n32)[nH]1 [Example 26] = 1.3 µM

Pending molecule:
In: Given the molecule C[C@H]1CC(c2ncc(-c3ccnc(CN)c3)[nH]2)n2c1cc(-c1c(-n3cnnn3)ccc(Cl)c1F)cc2=O (stereo in doubt) [Example 39] , write its reported IC50.
Out: > 10 µM

---

System Tested: Factor XIa (Homo sapiens, UniProt P03951)
Protocol: Factor XIa inhibition assay (FLINT) utilizing a fluorophore-quencher pair peptide substrate 5Fam-[…]-K5Tamra
Assay type: biochemical
Stated Conditions: kinetic (KIN) reads; values in nM; read-out: FXIa KIN Inh IC50
Description: Biological Example 1: Factor XIa Inhibition Assay Utilizing a Fluorophore-Quencher Pair Peptide Substrate A fluorescence intensity (FLINT) based assay was used to monitor inhibition of Factor XIa. The peptide substrate, 5Fam-[…]-K5Tamra (purchased from New England Peptide) was chosen based on the FXI sequence. […] The peptide substrate was designed with a fluorophore-quencher pair, where the fluorescence is quenched until FXIa cleaves the 8-mer peptide after the Arg residue. […]
Measure Name: IC50 (nM)
Report only the number, with the unit nM understood.

Recorded IC50, per entry:
• COc1cc(-c2cnc([C@H]3C[C@H](C)c4nc(-c5c(-n6cnnn6)ccc(Cl)c5F)cc(=O)n43)[nH]2)ccn1 (stereo in doubt) = 6.9
• Nc1nsc2cc(-c3cnc([C@H]4CC5(CC5)c5nc(-c6c(-n7cnnn7)ccc(Cl)c6F)cc(=O)n54)[nH]3)ccc12 = 53.8
• COC(=O)Nc1ccc(-c2cnc([C@@H]3C[C@@H](C)c4cc(-c5c(-n6cnnn6)ccc(Cl)c5F)cc(=O)n43)[nH]2)cc1 = 0.6
• C[C@H]1C[C@@H](c2ncc(-c3cc(N)nn3C)[nH]2)n2c1cc(-c1c(-n3cnnn3)ccc(Cl)c1F)cc2=O = 165
• CC1C[C@H](c2nc(-c3cnc(N)cn3)c[nH]2)n2c1nc(-c1c(-n3cc(C(F)(F)F)nn3)ccc(Cl)c1F)cc2=O (stereo partly shown) = 63.5
• C[C@H]1C[C@@H](c2ncc(-c3ncc(N)nc3C(F)(F)F)[nH]2)n2c1nc(-c1c(-n3cnnn3)ccc(Cl)c1F)cc2=O (relative stereo) = 56.2
• Cc1nc(N)sc1-c1cnc([C@@H]2CC3(CC3)c3nc(-c4c(-n5cnnn5)ccc(Cl)c4F)cc(=O)n32)[nH]1 = 92.2
• CC(=O)Nc1ncc(-c2cnc(C3CC4(CC4)c4cc(-c5c(-n6cnnn6)ccc(Cl)c5F)cc(=O)n43)[nH]2)s1 (stereo not shown) = 253
• Cc1nc(N)ccc1-c1cnc([C@@H]2C[C@H](C)c3cc(-c4c(-n5cnnn5)ccc(Cl)c4F)cc(=O)n32)[nH]1 (relative stereo) = 0.8
• Cc1c(-c2cnc([C@@H]3C[C@H](C)c4cc(-c5c(-n6cnnn6)ccc(Cl)c5F)cc(=O)n43)[nH]2)ccnc1C#N (relative stereo) = 6.8

In: Given the compound C[C@H]1C[C@@H](c2ncc(-c3c(C#N)cnn3C)[nH]2)n2c1cc(-c1c(-n3cnnn3)ccc(Cl)c1F)cc2=O , write its reported IC50.
Out: 189

In: Given the compound C[C@@H]1C[C@@H](c2ncc(-c3ccc(N)nc3F)[nH]2)n2c1cc(-c1c(-n3cnnn3)ccc(Cl)c1F)cc2=O , write its reported IC50.
Out: 0.4

In: Given the compound C[C@H]1C[C@@H](c2ncc(-c3ccnc(C(F)(F)F)c3)[nH]2)n2c1nc(-c1c(-n3cnnn3)ccc(Cl)c1F)cc2=O (relative stereo) , write its reported IC50.
Out: 47.6
